Values compiled from paper PMC7211202.

# measurement notes: Plasma AMG 232 pharmacokinetics (HPLC-MS, non-compartmental analysis)
# Format: in vivo, human
# particulars: human, plasma, oral, 300 mg, Day 7, dose escalation, 300 mg (n = 3–4); read-out: Vz/F, mean (SD)
property label: Vd/F (L)

1) CC(C)[C@@H](CS(=O)(=O)C(C)C)N1C(=O)[C@@](C)(CC(=O)O)C[C@H](c2cccc(Cl)c2)[C@H]1c1ccc(Cl)cc1 = 762

* * *

# measurement notes: Plasma AMG 232 pharmacokinetics (HPLC-MS, non-compartmental analysis)
# Assay type: in vivo, human
# particulars: human, plasma, oral, 240 mg, Day 7, 240-mg dose expansion, WDLPS (n = 9–10); read-out: tmax, median (range)
property label: Tmax (h)

1) CC(C)[C@@H](CS(=O)(=O)C(C)C)N1C(=O)[C@@](C)(CC(=O)O)C[C@H](c2cccc(Cl)c2)[C@H]1c1ccc(Cl)cc1 [AMG 232] = 3

* * *

# measurement notes: Plasma AMG 232 pharmacokinetics (HPLC-MS, non-compartmental analysis)
# Format: in vivo, human
# particulars: human, plasma, oral, 120 mg, Day 1, dose escalation, 120 mg (n = 4–7); read-out: AUC24h, mean (SD)
property label: AUC(0-t) (ng·h/mL)

1) CC(C)[C@@H](CS(=O)(=O)C(C)C)N1C(=O)[C@@](C)(CC(=O)O)C[C@H](c2cccc(Cl)c2)[C@H]1c1ccc(Cl)cc1 = 5160

* * *

# measurement notes: Plasma AMG 232 pharmacokinetics (HPLC-MS, non-compartmental analysis)
# Type: in vivo, human
# particulars: human, plasma, oral, 30 mg, Day 1, dose escalation, 30 mg (n = 3); read-out: AUC24h, mean (SD)
# Description: Non-compartmental analysis was performed using WinNonlin Professional software, version 6.3. Parameters were summarized descriptively.
property label: AUC(0-t) (ng·h/mL)

1) CC(C)[C@@H](CS(=O)(=O)C(C)C)N1C(=O)[C@@](C)(CC(=O)O)C[C@H](c2cccc(Cl)c2)[C@H]1c1ccc(Cl)cc1 = 1960

* * *

# measurement notes: Plasma AMG 232 pharmacokinetics (HPLC-MS, non-compartmental analysis)
# Format: in vivo, human
# particulars: human, plasma, oral, 120 mg, Day 7, dose escalation, 120 mg (n = 4–7); read-out: AUC24h, mean (SD)
property label: AUC(0-t)

1. CC(C)[C@@H](CS(=O)(=O)C(C)C)N1C(=O)[C@@](C)(CC(=O)O)C[C@H](c2cccc(Cl)c2)[C@H]1c1ccc(Cl)cc1 [AMG 232] = 8940 ng·h/mL

* * *

# measurement notes: Plasma AMG 232 pharmacokinetics (HPLC-MS, non-compartmental analysis)
# Format: in vivo, human
# particulars: human, plasma, oral, 240 mg, Day 1, 240-mg dose expansion, DDLPS (n = 6–10); read-out: Cmax, mean (SD)
property label: Cmax (ng/mL)

1) CC(C)[C@@H](CS(=O)(=O)C(C)C)N1C(=O)[C@@](C)(CC(=O)O)C[C@H](c2cccc(Cl)c2)[C@H]1c1ccc(Cl)cc1 = 986

* * *

# measurement notes: Plasma AMG 232 pharmacokinetics (HPLC-MS, non-compartmental analysis)
# Assay type: in vivo, human
# particulars: human, plasma, oral, 240 mg, Day 1, 240-mg dose expansion, ER + PR+ Breast (n = 6–8); read-out: Cmax, mean (SD)
property label: Cmax

1) CC(C)[C@@H](CS(=O)(=O)C(C)C)N1C(=O)[C@@](C)(CC(=O)O)C[C@H](c2cccc(Cl)c2)[C@H]1c1ccc(Cl)cc1 = 1920 ng/mL
